Origin of the recorded values: ChEMBL document CHEMBL1147199

# TEST METHOD NOTES: Cytotoxicity against human erythrocytes assessed as hemolytic activity after 60 mins
# Type: cell-based, Erythrocyte
# EXPERIMENTAL CONDITIONS: read-out: HD50
Quick list: HC50 at 1 h per entry.

Illustrative cases are given below, each with its answer.
[
  {
    "SMILES INPUT": "CCCCCCCCCCCCCCCCCC(=O)NC[C@H]1O[C@@H](O[C@H]2CC[C@@]3(C)C(=CC[C@H]4[C@@H]5C[C@@H]6O[C@]7(CC[C@@H](C)CO7)[C@@H](C)[C@@H]6[C@@]5(C)CC[C@@H]43)C2)[C@H](O[C@H]2O[C@H](C)[C@@H](O)[C@H](O)[C@@H]2O)[C@@H](O)[C@@H]1O[C@H]1O[C@H](C)[C@@H](O)[C@H](O)[C@@H]1O",
    "HC50 at 1 h": "> 50 µg/mL"
  },
  {
    "SMILES INPUT": "C[C@@H]1CC[C@@]2(OC1)O[C@H]1C[C@H]3[C@@H]4CC=C5C[C@@H](O[C@@H]6O[C@H](CN=[N+]=[N-])[C@@H](O[C@H]7O[C@H](C)[C@@H](O)[C@H](O)[C@@H]7O)[C@H](O)[C@H]6O[C@H]6O[C@H](C)[C@@H](O)[C@H](O)[C@@H]6O)CC[C@]5(C)[C@H]4CC[C@]3(C)[C@H]1[C@@H]2C",
    "HC50 at 1 h": "> 50 µg/mL"
  }
]

Now for the compound whose HC50 at 1 h we want.
Which HC50 at 1 h is reported for this compound? "CCCCCCCCCCCCCCCCCC(=O)NCCO[C@H]1[C@H](O)[C@H](O)[C@@H](O[C@H]2[C@H](O)[C@@H](O[C@H]3O[C@H](C)[C@@H](O)[C@H](O)[C@@H]3O)[C@H](O[C@H]3CC[C@@]4(C)C(=CC[C@H]5[C@@H]6C[C@@H]7O[C@]8(CC[C@@H](C)CO8)[C@@H](C)[C@@H]7[C@@]6(C)CC[C@@H]54)C3)O[C@@H]2CO)O[C@@H]1C"
> 50 µg/mL
